Assay: Cytotoxicity against MDCK cells after 40 hrs incubation by CellTiter-Glo assay
Assay type: cell-based, Canis lupus familiaris
Settings: dog
readout: CC50 at 40 h (µM)
// return numeric value only (unit: µM, not printed)

## Task Name the recorded CC50 at 40 h for COC1=C(OC)[C@@H]([C@@H](O)Cn2cc(CNC(=O)[C@]34CCC(C)(C)C[C@H]3C3=CC[C@@H]5[C@@]6(C)CC[C@H](O)C(C)(C)[C@@H]6CC[C@@]5(C)[C@]3(C)C[C@H]4O)nn2)OC1=O .
## Result 5.6

## Task Name the recorded CC50 at 40 h for C[C@H]1[C@H](C)CC[C@]2(C(=O)NCc3cn(C[C@H](O)[C@H]4OC(=O)C(O)=C4O)nn3)[C@H](O)C[C@]3(C)C(=CC[C@@H]4[C@@]5(C)CC[C@H](O)C(C)(C)[C@@H]5CC[C@]43C)[C@H]12 .
## Result 41.1

## Task Name the recorded CC50 at 40 h for CC1(C)CC[C@]2(C(=O)NCc3cn(C[C@H](O)[C@H]4OC(=O)C(O)=C4O)nn3)[C@H](O)C[C@]3(C)C(=CC[C@@H]4[C@@]5(C)CC[C@H](O)C(C)(C)[C@@H]5CC[C@]43C)[C@@H]2C1 .
## Result 59.3

## Task Name the recorded CC50 at 40 h for COC1=C(OC)[C@@H]([C@@H](O)Cn2cc(CNC(=O)[C@]34CCC(C)(C)C[C@H]3C3=CC[C@@H]5[C@@]6(C)CC[C@H](O)C(C)(C)[C@@H]6CC[C@@]5(C)[C@]3(C)CC4)nn2)OC1=O .
## Result 19.6

## Task Name the recorded CC50 at 40 h for C=C(C)[C@@H]1CC[C@@]2(C(=O)NCc3cn(C[C@H](O)[C@H]4OC(=O)C(OC)=C4OC)nn3)[C@H]1[C@H]1CC[C@@H]3[C@@]4(C)CC[C@H](O)C(C)(C)[C@@H]4CC[C@@]3(C)[C@]1(C)C[C@H]2O .
## Result 43.9

## Task Name the recorded CC50 at 40 h for CC1(C)CC[C@]2(C(=O)NC[C@H](O)[C@H]3OC(=O)C(O)=C3O)[C@H](O)C[C@]3(C)C(=CC[C@@H]4[C@@]5(C)CC[C@H](O)C(C)(C)[C@@H]5CC[C@]43C)[C@@H]2C1 .
## Result 29.7

## Task Name the recorded CC50 at 40 h for CC1(C)CC[C@]2(C(=O)NCc3cn(C[C@H](O)[C@H]4OC(=O)C(O)=C4O)nn3)CC[C@]3(C)C(=CC[C@@H]4[C@@]5(C)CC[C@H](O)C(C)(C)[C@@H]5CC[C@]43C)[C@@H]2C1 .
## Result 46.8
